Test: Half life of the compound by HPLC analysis in presence of NaOH
Assay type: physicochemical
endpoint: half-life (h)
Lab book: enter the figure in h, no units written.

Task item: Look up and state reported half-life for CC(C)(O)CC[C@@H](O)[C@](C)(O)[C@H]1CC[C@@]2(O)C3=CC(=O)[C@@H]4C[C@@H](O)[C@@H](O)C[C@]4(C)[C@H]3CC[C@]12C [20-HYDROXYECDYSONE]
Reply: 1.39
